The reported numbers originate from PubChem BioAssay AID2315.

assay: A qHTS for Small Molecule Inhibitors of Shiga Toxin; settings: Vero cells, Shiga toxin protein synthesis inhibition reporter; at 38.7 µM, hits give high values; further: 0% is about no effect
About 27,000 (9.3%) of roughly 290,000 compounds were called active. The sample as a whole holds a higher share of actives than the screen did.
Examples of compounds with documented inhibition follow.
Form entry: value (%) — number only.

COc1ccc(NC(=O)CSc2ncnc3[nH]ncc23)cc1: -13.5
Cc1ccccc1CCNC(=O)C1CCC(=O)N(Cc2ccc(Cl)cc2)C1 (stereo unspecified): 13.3
O=C(NCCc1ccccc1)c1ccc(OCCOc2ccccc2)cc1: -1.89
CN(C(=O)COc1ncnc2c1cnn2-c1ccccc1)C1CCCCC1: 20.6
CCCCOP(=O)(c1ccc(N(C)C)cc1)C(O)c1cc(OC)ccc1OC (stereo unspecified): -2.17

Could you now look at the following compound, please?
Kindly note the recorded inhibition for `COc1ccccc1N1CCN(C(=O)CSc2nnc(-c3ccoc3C)o2)CC1` , which is 31.6

###

assay: A qHTS for Small Molecule Inhibitors of Shiga Toxin; details: Vero cells, Shiga toxin protein synthesis inhibition reporter; at 38.7 µM; further: 0% is about no effect
The whole screen tested about 290,000 compounds, of which about 27,000 (9.3%) were called active. No stated cut-off is given here; in the data, active means inhibition mostly above about 28% (no sharp cut-off); inactive means mostly below about 43%. The sample as a whole holds a higher share of actives than the screen did.
# output must be one of active, inactive

CCCN1CCC(=O)N(C(CSc2ccc(C)cc2)Cc2ccccc2)CC1 (stereo not given): inactive
CC(=O)NC1CCN(CC(=O)Nc2nccs2)CC1: inactive
CSc1ccccc1-c1nnc(-c2ccc(Cl)cc2)o1: active

Task: State the result this test recorded for `COc1ccc(NC(=O)CCS(=O)(=O)c2cc3c(cc2Cl)NC(=O)CO3)cc1OC` .
Result: inactive

Task: State the result this test recorded for CN(CC1CCCO1)S(=O)(=O)c1ccc(C(=O)Nc2ccc([N+](=O)[O-])cc2)cc1 (stereo not given) .
Result: inactive

Task: State the result this test recorded for CC1Sc2ccc(S(=O)(=O)CCC(=O)NCc3ccccc3Cl)cc2NC1=O (stereo not given) .
Result: inactive

Task: State the result this test recorded for `COc1ccc(SC[C@H](Cc2ccccc2)N2CCN(CCc3ccccc3)CCC2=O)cc1` .
Result: inactive

###

Examples of molecules with documented inhibition follow.
assay: A qHTS for Small Molecule Inhibitors of Shiga Toxin; details: Vero cells, Shiga toxin protein synthesis inhibition reporter; at 38.7 µM, hits give high values; further: 0% is about no effect
About 27,000 (9.3%) of roughly 290,000 compounds were called active. Shown is part of a subset that was picked to be rich in actives.
Form entry: value (%) — number only.

Kindly note the recorded inhibition for `CCOc1ccc2c(c1)C(c1ccc(C)cc1)=NNC(c1ccc(C)cc1)=N2` , which is 85.1

Kindly note the recorded inhibition for `COc1ccc(Cc2n[nH]c(=S)n2NC(=O)Nc2ccc(C)cc2)cc1` , which is 63.4

Kindly note the recorded inhibition for CCN(CC)/[N+]([O-])=N/Oc1cc(O/[N+]([O-])=N/N2CCCC2CO)c([N+](=O)[O-])cc1[N+](=O)[O-] (stereo unspecified) , which is -5.78

Kindly note the recorded inhibition for `Cn1ccc(=Nc2ccc(NC(=O)c3ccc(N=c4ccn(C)c5ccc([N+](=O)[O-])cc45)cc3)cc2)cc1` , which is -0.904

Kindly note the recorded inhibition for `CCN(CC(=O)NCc1cccs1)C(=O)c1cccc(S(=O)(=O)Nc2ccccc2OC)c1` , which is 25.8
